Provenance of the data: patent EP4782445A1

Target: CDK4/cyclin D3 (Homo sapiens)
Construct: purchased Carna
Assay: In vitro biochemical kinase activity assay for CDK4/cyclin D3 (HTRF)
Conditions: data marked with *: 1 mM ATP in Step 1
property.name: IC50 (nM)

>>> readout_value("CC(C)n1c(C#Cc2nc(N[C@@H]3CCOC[C@H]3O)ncc2Cl)cnc1CN1CCC[C@H](F)C1")
26.4

[a] CC(C)n1c(C#Cc2nc(N[C@@H]3CCOC[C@H]3O)ncc2F)cnc1C(C)(C)O
[b] CC(C)n1c(C#Cc2nc(N[C@@H]3CCOC[C@H]3O)ncc2Cl)cnc1CN1CCCC(C)(O)C1 (some centres unmarked)
[c] CC(C)n1c(C#Cc2cc(N[C@@H]3CCOC[C@H]3O)ncc2Cl)cnc1C(C)(C)O
[d] CCN1CCN(Cc2ccc(Nc3ncc(Cl)c(C#Cc4cnn(C)c4C(C)C)n3)nc2)CC1
Query: Place the items in sequence of falling IC50. Write the labels, ordered according to the request.
Response: a, b, c, d
(a: 117 nM, b: 36.1 nM, c: 21.7 nM, d: 4.71 nM)

* * *

Molecular target: CDK4/cyclin D3 (Homo sapiens, UniProt P11802)
Construct: purchased Carna
Sequence (P11802 whole entry): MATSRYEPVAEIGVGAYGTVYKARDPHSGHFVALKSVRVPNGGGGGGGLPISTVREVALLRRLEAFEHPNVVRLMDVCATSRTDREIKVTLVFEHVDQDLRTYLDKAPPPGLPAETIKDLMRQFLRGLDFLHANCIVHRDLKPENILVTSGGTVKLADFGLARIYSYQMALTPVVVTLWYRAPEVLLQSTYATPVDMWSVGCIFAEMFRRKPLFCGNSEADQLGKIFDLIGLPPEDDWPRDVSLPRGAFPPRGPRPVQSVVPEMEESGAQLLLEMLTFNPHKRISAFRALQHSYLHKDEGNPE
Sequence (P30281 whole entry partner): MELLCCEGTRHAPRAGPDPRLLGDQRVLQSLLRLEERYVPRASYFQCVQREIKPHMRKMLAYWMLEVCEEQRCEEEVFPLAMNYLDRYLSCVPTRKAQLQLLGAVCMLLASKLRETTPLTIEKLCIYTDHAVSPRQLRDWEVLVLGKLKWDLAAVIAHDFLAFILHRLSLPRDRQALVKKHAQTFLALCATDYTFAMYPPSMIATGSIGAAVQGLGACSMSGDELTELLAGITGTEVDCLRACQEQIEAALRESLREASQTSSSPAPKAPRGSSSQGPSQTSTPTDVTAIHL
Experiment: In vitro biochemical kinase activity assay for CDK4/cyclin D3 (HTRF)
Settings: data marked with *: 1 mM ATP in Step 1
property.name: IC50 (nM)

[a] [2H]C([2H])(c1ncc(C#Cc2nc(Nc3ccc(CN4CCN(CC)CC4)cn3)ncc2Cl)n1C(C)C)N1CCC[C@H](O)C1
[b] CCN1CCN(Cc2ccc(Nc3ncc(F)c(C#Cc4cnn(C)c4C(C)C)n3)nc2)CC1
[c] CC(C)n1c(C#Cc2nc(Nc3ccc(N4CCN(C)CC4=O)cn3)ncc2Cl)cnc1C(C)(C)O
Query: Put the items in order so that reported IC50 rises from first to last. Write the labels, ordered according to the request.
Response: a, c, b
(a: 3.17 nM, c: 5.53 nM, b: 15.1 nM)

* * *

Molecular target: CDK6/cyclin D3 (Homo sapiens, UniProt Q00534)
Construct: purchased Carna
Sequence (Q00534 whole entry): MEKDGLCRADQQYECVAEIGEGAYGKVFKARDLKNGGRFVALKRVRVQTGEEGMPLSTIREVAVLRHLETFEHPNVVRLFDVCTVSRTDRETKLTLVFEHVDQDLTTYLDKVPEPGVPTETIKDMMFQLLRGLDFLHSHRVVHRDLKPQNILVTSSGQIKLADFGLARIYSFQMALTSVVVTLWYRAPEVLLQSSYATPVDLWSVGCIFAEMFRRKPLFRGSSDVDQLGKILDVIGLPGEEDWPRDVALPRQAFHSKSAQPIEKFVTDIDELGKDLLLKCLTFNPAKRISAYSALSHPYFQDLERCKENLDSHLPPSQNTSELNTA
Sequence (P30281 whole entry partner): as the sequence (P30281 whole entry partner) above
Test: In vitro biochemical kinase activity assay for CDK6/cyclin D3 (HTRF)
Details: unmarked data: 100 µM ATP in Step 1
property.name: IC50 (nM)

[1] CC(=O)c1ncc(C#Cc2nc(N[C@@H]3CCOC[C@H]3O)ncc2Cl)n1C(C)C [Example 52]
[2] CCN1CCN(C(=O)c2ccc(Nc3ncc(Cl)c(C#Cc4cnc(C(C)(C)O)n4C(C)C)n3)nc2)CC1
[3] CC(C)n1c(C#Cc2nc(N[C@@H]3CCNC[C@H]3O)ncc2Cl)cnc1C(C)(C)O
[4] CC(C)n1c(C#Cc2nc(N[C@@H]3CCOC[C@H]3O)ncc2Cl)cnc1[C@H](C)O
Query: Put the items in order so that reported IC50 rises from first to last. Write the labels, ordered according to the request.
Response: 2, 4, 1, 3
(2: 5.88 nM, 4: 11.4 nM, 1: 24.2 nM, 3: 162 nM)

* * *

Target: CDK4/cyclin D3 (Homo sapiens)
Construct: purchased Carna
Experiment: In vitro biochemical kinase activity assay for CDK4/cyclin D3 (HTRF)
Conditions: data marked with *: 1 mM ATP in Step 1
pIC50: −log10 of the molar value.
property.name: pIC50

>>> readout_value("Cn1ncc(C#Cc2nc(N[C@@H]3CCOC[C@H]3O)ncc2Cl)c1C(C)(C)C")
6.86

[A] CC(C)n1c(C#Cc2nc(N[C@@H]3CCOC[C@H]3O)ncc2Cl)cnc1C1(O)CCCC1
[B] CC(C)n1c(C#Cc2nc(N[C@@H]3CCOC[C@H]3O)ncc2Cl)cnc1C1CCCN1 (stereo partly shown)
[C] CCN1CC2(C1)CN(c1ccc(Nc3ncc(Cl)c(C#Cc4cnc(CN5CCC[C@H](O)C5)n4C(C)C)n3)nc1)C2
Query: Arrange the 3 entries by pIC50 so the values rise. Write the labels, ordered according to the request.
Response: B, A, C
(B: 7.11, A: 7.64, C: 8.28)
